These measurements were taken from patent EP0934300B1.

MMP-9 (Homo sapiens, UniProt P14780): recorded pIC50 for assorted molecules
Sequence (P14780 94-707): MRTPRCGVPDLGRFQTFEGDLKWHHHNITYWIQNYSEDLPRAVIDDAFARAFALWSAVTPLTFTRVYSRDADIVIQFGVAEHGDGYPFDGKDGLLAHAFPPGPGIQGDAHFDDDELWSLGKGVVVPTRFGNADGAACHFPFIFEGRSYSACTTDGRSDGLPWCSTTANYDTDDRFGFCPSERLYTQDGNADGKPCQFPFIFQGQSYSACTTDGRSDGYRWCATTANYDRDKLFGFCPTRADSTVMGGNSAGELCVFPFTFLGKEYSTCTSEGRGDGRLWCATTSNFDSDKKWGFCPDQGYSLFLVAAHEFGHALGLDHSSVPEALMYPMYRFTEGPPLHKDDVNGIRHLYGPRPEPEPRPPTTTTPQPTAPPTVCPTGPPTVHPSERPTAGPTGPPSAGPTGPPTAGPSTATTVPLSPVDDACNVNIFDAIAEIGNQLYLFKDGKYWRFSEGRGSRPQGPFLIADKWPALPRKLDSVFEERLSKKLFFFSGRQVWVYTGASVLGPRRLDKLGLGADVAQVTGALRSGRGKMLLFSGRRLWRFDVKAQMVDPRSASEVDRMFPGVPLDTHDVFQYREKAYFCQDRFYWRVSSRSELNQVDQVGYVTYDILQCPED
pIC50: −log10 of the molar value.
property name: pIC50

# mol smiles, property name, observed value
data = [
    ("COc1ccc(S(=O)(=O)N(Cc2ccccc2)c2c(C)csc2C(=O)NO)cc1", "pIC50", 6.98),
    ("COc1ccc(S(=O)(=O)N(Cc2ccccc2)c2c(C(=O)NO)csc2Br)cc1", "pIC50", 6.63),
    ("COc1ccc(S(=O)(=O)N(Cc2ccccc2)c2c(C(=O)NO)cc(OC)nc2OC)cc1", "pIC50", 7.82),
    ("COc1ccc(S(=O)(=O)N(Cc2ccccc2)c2c(C(=O)NO)cnn2C)cc1", "pIC50", 6.03),
    ("COc1ccc(S(=O)(=O)N(Cc2cccnc2)c2c(C(=O)NO)csc2Br)cc1", "pIC50", 7.15),
]

---

Below, each entry is listed with its recorded inhibition at 1 µM.
target: MMP-1 (Homo sapiens); experiment: MMP-1 inhibition (thiopeptide or fluorescent peptide substrate assay); format: biochemical; conditions: read-out: MMP-1 % inhibition; concentration 1 µM
property name: inhibition at 1 µM (%)

# mol smiles, property name, observed value
data = [
    ("COc1ccc(S(=O)(=O)N(Cc2ccccc2)c2cscc2C(=O)NO)cc1", "inhibition at 1 µM", 40),
    ("COc1ccc(S(=O)(=O)N(Cc2ccccc2)c2c(C(=O)NO)cnn2C)cc1", "inhibition at 1 µM", 22.1),
    ("COc1ccc(S(=O)(=O)N(Cc2ccccc2)c2ccsc2C(=O)NO)cc1", "inhibition at 1 µM", 19.3),
    ("C#Cc1scc(C(=O)NO)c1N(Cc1ccccc1)S(=O)(=O)c1ccc(OC)cc1", "inhibition at 1 µM", 48.9),
]

---

MMP-13 (Homo sapiens, UniProt P45452): recorded IC50 for assorted molecules

# molecule, scale unit, IC50
data = [
    ("COc1ccc(S(=O)(=O)N(Cc2ccccc2)c2c(C(=O)NO)csc2Br)cc1 [Example 20]", "nM", 472),
    ("COc1ccc(S(=O)(=O)N(Cc2ccccc2)c2c(C(=O)NO)cc(OC)nc2OC)cc1 [Example 33]", "nM", 47),
]

---

Molecular target: MMP-1 (Homo sapiens, UniProt P03956)
Sequence (P03956 100-469): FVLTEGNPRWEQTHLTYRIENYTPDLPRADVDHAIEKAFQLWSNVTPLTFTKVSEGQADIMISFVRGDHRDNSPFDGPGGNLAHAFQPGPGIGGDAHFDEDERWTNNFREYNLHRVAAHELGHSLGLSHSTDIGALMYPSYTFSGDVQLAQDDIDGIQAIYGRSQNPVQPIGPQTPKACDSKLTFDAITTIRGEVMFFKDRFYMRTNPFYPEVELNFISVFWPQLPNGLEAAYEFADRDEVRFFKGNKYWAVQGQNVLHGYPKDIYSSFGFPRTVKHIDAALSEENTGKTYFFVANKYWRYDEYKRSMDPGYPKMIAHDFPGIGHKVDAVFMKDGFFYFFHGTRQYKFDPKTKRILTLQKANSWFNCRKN

# compound, assay system, IC50 (nM)
rows = [
    ("COc1ccc(S(=O)(=O)N(Cc2cccnc2)c2c(C(=O)NO)csc2Br)cc1 [Example 26]", "MMP-1 (Homo sapiens, UniProt P03956)", 1000),
    ("COc1ccc(S(=O)(=O)N(Cc2ccccc2)c2c(C(=O)NO)csc2Br)cc1 [Example 20]", "MMP-1 (Homo sapiens, UniProt P03956)", 638),
]
